Tested on: Saccharomyces cerevisiae
Assay: Inhibition of Pdr5 ATPase activity in Saccharomyces cerevisiae YRE1001 plasma membranes assessed as residual activity at 500 ug/ml after 20 mins in presence of ATP by colorimetric assay relative to control
valueKind: Activity (%)

Solved entries:
> print(dat)
                                   compound  valuekind  unitsofmeasure  readoutvalue
1  O=C1C=CC[C@H](/C=C/c2ccccc2)O1 [GONIOTHALAMIN]   Activity               %          24.3
2            O=C1C=CC[C@H](/C=C/C2CCCCC2)O1   Activity               %            56

[P] O=C1C=CC[C@@H](/C=C/C2CCCCC2)O1
[Q] COc1ccc(/C=C/[C@H]2CC=CC(=O)O2)cc1
[R] O=C1C=CC[C@@H](/C=C/c2ccc(F)cc2)O1
Ascending sort, Activity. Please write the labels in the order that was asked for.
Q, R, P
(Q: 0%, R: 26.3%, P: 53%)

---

System: Saccharomyces cerevisiae
Experiment: Inhibition of Pdr5 in Saccharomyces cerevisiae YRE1001 plasma membranes assessed as reduction in rhodamine 6G transport by measuring relative fluorescence intensity at 500 ug/ml preincubated with enzyme followed by ATP addition measured for 20 mins by fluorescence assay relative to control
Set-up: scale not given: the % may be the effect or the level left
valueKind: Activity (%)

> print(dat)
                          compound  readoutvalue
1  O=C1C=CC[C@@H](/C=C/C2CCCCC2)O1             0

[P] O=C1C=CC[C@H](/C=C/C2CCCCC2)O1
[Q] O=C1C=CC[C@H](/C=C/c2ccccc2)O1 [GONIOTHALAMIN]
[R] O=C1C=CC[C@@H](/C=C/c2ccc(F)cc2)O1
[S] COc1ccc(/C=C/[C@H]2CC=CC(=O)O2)cc1
Exam item: list the entries in increasing order of Activity. // rank by listing labels in the order requested
P, Q, S, R

---

Test system: A549
Experiment: Antiproliferative activity against human A549 cells after 48 hrs by CellTiter-Glo luminescent cell viability assay
Type: functional, cell-based
Conditions: A549, 48 h
pIC50: −log10 of the molar value.
valueKind: pIC50

> print(dat)
                                   compound  readoutvalue
1  O=C1C=CC[C@H](/C=C/c2ccccc2)O1 [GONIOTHALAMIN]          5.24
2            O=C1C=CC[C@H](/C=C/C2CCCCC2)O1          4.51

[I] O=C1C=CCC(/C=C/c2ccccc2)O1 (racemic)
[II] O=C1C=CC[C@@H](/C=C/C2CCCCC2)O1
Could you kindly indicate whether I or II has the higher pIC50 value? Reply briefly: the label of your chosen item.
I
(I: 4.46, II: 4.16)

---

System: Saccharomyces cerevisiae
Assay: Inhibition of Pdr5 in Saccharomyces cerevisiae YRE1001 plasma membranes assessed as reduction in rhodamine 6G transport by measuring relative fluorescence intensity at 50 ug/ml preincubated with enzyme followed by ATP addition measured for 20 mins by fluorescence assay relative to control
Parameters: scale not given: the % may be the effect or the level left
valueKind: Activity (%)

Below: 3 compounds and their reported Activity.
> print(dat)
                            molsmiles  readoutvalue
1  COc1ccc(/C=C/[C@H]2CC=CC(=O)O2)cc1             4
2      O=C1C=CC[C@H](/C=C/c2ccccc2)O1            10
3  O=C1C=CC[C@@H](/C=C/c2ccc(F)cc2)O1            75

[1] O=C1C=CC[C@H](/C=C/C2CCCCC2)O1
[2] O=C1C=CC[C@@H](/C=C/C2CCCCC2)O1
Lowest Activity? choose 1 or 2 Kindly state the label of the option you pick.
1
(1: 18%, 2: 37%)

---

Tested on: Saccharomyces cerevisiae
Assay: Inhibition of Pdr5 ATPase activity in Saccharomyces cerevisiae YRE1001 plasma membranes assessed as residual activity at 50 ug/ml after 20 mins in presence of ATP by colorimetric assay relative to control
valueKind: Activity (%)

> print(dat)
                        molsmiles             targetofassay  readoutvalue
1  O=C1C=CC[C@H](/C=C/c2ccccc2)O1  Saccharomyces cerevisiae            30
2  O=C1C=CC[C@H](/C=C/C2CCCCC2)O1  Saccharomyces cerevisiae            79

[1] O=C1C=CC[C@@H](/C=C/C2CCCCC2)O1
[2] O=C1C=CC[C@@H](/C=C/c2ccc(F)cc2)O1
[3] COc1ccc(/C=C/[C@H]2CC=CC(=O)O2)cc1
Sequence the entries by Activity, beginning with the highest number. Response format: the labels, sorted as the prompt asks.
1, 2, 3

---

System: Saccharomyces cerevisiae
Experiment: Inhibition of Pdr5 ATPase activity in Saccharomyces cerevisiae YRE1001 plasma membranes assessed as residual activity at 5 ug/ml after 20 mins in presence of ATP by colorimetric assay relative to control
valueKind: Activity (%)

> print(dat)
                            molsmiles             targetofassay  unitsofmeasure  readoutvalue
1     O=C1C=CC[C@@H](/C=C/C2CCCCC2)O1  Saccharomyces cerevisiae               %            88
2      O=C1C=CC[C@H](/C=C/c2ccccc2)O1  Saccharomyces cerevisiae               %          71.7
3  O=C1C=CC[C@@H](/C=C/c2ccc(F)cc2)O1  Saccharomyces cerevisiae               %            71

[a] O=C1C=CC[C@H](/C=C/C2CCCCC2)O1
[b] COc1ccc(/C=C/[C@H]2CC=CC(=O)O2)cc1
Between a and b , which one has the lower reported Activity value? State the label of the item chosen.
b
(b: 25.7%, a: 98%)

---

System: Saccharomyces cerevisiae
Assay: Inhibition of Pdr5 in Saccharomyces cerevisiae YRE1001 plasma membranes assessed as reduction in rhodamine 6G transport by measuring relative fluorescence intensity at 5 ug/ml preincubated with enzyme followed by ATP addition measured for 20 mins by fluorescence assay relative to control
Parameters: scale not given: the % may be the effect or the level left
valueKind: Activity (%)

Known Activity results, listed for orientation:
> print(dat)
                            molsmiles  readoutvalue
1  O=C1C=CC[C@@H](/C=C/c2ccc(F)cc2)O1            99
2  COc1ccc(/C=C/[C@H]2CC=CC(=O)O2)cc1            44

[A] O=C1C=CC[C@@H](/C=C/C2CCCCC2)O1
[B] O=C1C=CC[C@H](/C=C/c2ccccc2)O1
Parameter check: reported Activity is higher for which label, A or B ? To answer, give the label that identifies your chosen option.
A
(A: 86%, B: 60%)
